- ASSAYED SYSTEM: GPR55 mutant G152W (Gα13) (Homo sapiens, UniProt Q9Y2T6, G152W)
- Sequence (Q9Y2T6 whole entry G152W): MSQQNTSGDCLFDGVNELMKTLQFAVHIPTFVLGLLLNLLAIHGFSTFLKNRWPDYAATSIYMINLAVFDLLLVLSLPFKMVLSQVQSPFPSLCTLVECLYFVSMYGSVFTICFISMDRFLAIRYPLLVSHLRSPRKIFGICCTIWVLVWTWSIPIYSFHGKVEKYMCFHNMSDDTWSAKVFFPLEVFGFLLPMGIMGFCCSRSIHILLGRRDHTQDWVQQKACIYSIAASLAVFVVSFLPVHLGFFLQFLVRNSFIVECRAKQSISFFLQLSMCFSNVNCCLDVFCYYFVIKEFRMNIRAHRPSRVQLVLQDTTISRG
- Sequence (Q14344 whole entry partner): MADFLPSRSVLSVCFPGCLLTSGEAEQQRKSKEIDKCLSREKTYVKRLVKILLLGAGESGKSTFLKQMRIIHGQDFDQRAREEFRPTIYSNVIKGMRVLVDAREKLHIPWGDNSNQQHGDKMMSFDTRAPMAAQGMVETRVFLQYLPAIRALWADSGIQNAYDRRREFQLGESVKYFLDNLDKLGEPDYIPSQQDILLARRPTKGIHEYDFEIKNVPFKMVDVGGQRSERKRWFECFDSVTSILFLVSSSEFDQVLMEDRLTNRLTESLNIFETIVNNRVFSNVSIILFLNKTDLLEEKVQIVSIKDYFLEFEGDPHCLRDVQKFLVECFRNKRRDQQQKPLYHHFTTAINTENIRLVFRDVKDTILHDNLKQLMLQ
- Sequence (P16520 whole entry partner): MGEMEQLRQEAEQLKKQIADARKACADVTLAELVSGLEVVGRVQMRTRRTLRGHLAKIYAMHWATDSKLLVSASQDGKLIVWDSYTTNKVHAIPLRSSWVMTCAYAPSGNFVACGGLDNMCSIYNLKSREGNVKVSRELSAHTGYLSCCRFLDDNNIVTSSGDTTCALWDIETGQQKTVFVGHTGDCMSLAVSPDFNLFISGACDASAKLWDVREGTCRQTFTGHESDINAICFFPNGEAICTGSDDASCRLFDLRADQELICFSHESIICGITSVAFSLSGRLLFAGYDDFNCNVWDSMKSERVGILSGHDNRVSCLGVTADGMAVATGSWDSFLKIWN
- Sequence (O14610 1-66 partner limits assumed): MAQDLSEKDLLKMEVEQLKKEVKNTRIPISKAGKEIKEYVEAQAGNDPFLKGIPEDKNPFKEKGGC
- ASSAY NAME: BRET² G protein dissociation assay, GPR55 G152W with Gα13
- CONDITION NOTES: GPR55 G152W, Gα13; calculated by extrapolating ΔBRET² ratios for concentrations <0.3 nM
- Excerpt: To validate the functionality of the GPR55 cryo-EM construct, we conducted bioluminescence resonance energy transfer 2 (BRET²)-based G protein dissociation assays[46],[47] using an engineered heterotrimeric G13 protein. The N-terminal GFP fusion of the receptor was additionally modified with a G67A mutation to disrupt fluorescence properties. […]
ASSAY METRIC: EC50 (nM)
Expressed in nM, but write only the number.

The compound identified as Cc1cccc(N2CCN(C(=O)c3cc(S(=O)(=O)N(C)C)ccc3N3CCCC3)CC2)c1C registered its EC50 at 1.35

Entry source: paper PMC11861906
